Test system: MS2 coat protein
experimentDescription: apparent KD of MS2 coat protein; designed switch direction (-1 OFF switch, 1 ON switch): -1; higher = weaker reporter binding
appliedConditions: Eterna round: R95; input ligand: microRNA oligo, concentration not stated
Parameter: apparent KD of MS2 coat protein. Scope: all listed entries.
I only need the number, in nM, no unit after it.

residueString	system	readoutName	assayValue
AAGAAACAUGAGGAUCACCCAUGUGAGGAUAUGAAAAAUAAAAUAAAAUAAAUAAUAAUCAGAAGGCACAAAGG [Mat - Mod of Hog D7] (puzzle: Exclusion 1)	MS2 coat protein	apparent KD of MS2 coat protein	34.1
AAAAAGCGAGGAUAUGCAUAAGGACCCGGGAGGGAAGUCGAACAUGAGGAUCACCCAUGUAGAAGGCGCAAAAA [Exclss2-IV] (puzzle: Exclusion 2)	MS2 coat protein	apparent KD of MS2 coat protein	11.5
UUAUCCGCUGAGGAUAUUAUCACUGAGAGGUGAUGAGAAGGCGGUACAUGAGGAUCACCCAUGUCUAUGGGCAG [Ex-6 Malc#23] (puzzle: Exclusion 6)	MS2 coat protein	apparent KD of MS2 coat protein	228
CUUAGCCUAAAAUCACGCAAGCUUUUCGCUUGUCUUAAGACAUGAGGAUCACCCAUGUCCGGGCUGAACUUAUGGAA [Esenma] (puzzle: Sensor v3, turn-off variant 2)	MS2 coat protein	apparent KD of MS2 coat protein	19.2

Ask: Which value of apparent KD of MS2 coat protein has been reported for UCGGCGCGAGGAUAUGCGGUUGCUUGGUAGGGUCGGAGCGUACAUGAGGAUCACCCAUGUAGAAGGCGCGCCGC [Apr-15 SS2-33] (puzzle: Exclusion 2) in the records?
Reply: 15.5

Ask: Then what about the sequence UUAUAAACAUAGGAUAUCGAAUAAAUUAUUUAACGAGAAGGAUGAACAUGAGGAUCACCCAUGUGGUAUCAUGG [Mat - Exclusion 6 - JL Mod - D30] (puzzle: Exclusion 6) ?
Reply: 228
